Overview of recorded MG-trapping activity, percentage related to AG (100%) for various molecules
# test.name: Direct MG-trapping activity by HPLC
# experimental.context: compound 0.1 mM, MG 0.1 mM, PBS pH 7.4, 37 °C, 24 h; HPLC of 2-MQ
Provide only the numeric value, understood in %.

Observe how each entry below is paired with its result.
COc1cc(O)c2c(c1)O[C@H](c1ccccc1)CC2=O ... 5
COc1cc(O)cc(O)c1C(=O)C1C(CC=C(C)C)C(C)=CCC1c1ccccc1 (centres unmarked) ... 9
COc1cc(O)c(C(=O)[C@@H]2[C@H](CC=C(C)C)C(C)=CC[C@H]2c2ccccc2)c(O)c1 ... 60
COc1cc2c(c(O)c1C(=O)/C=C/c1ccccc1)C=CC(C)(CCC=C(C)C)O2 (centres unmarked) ... 19

Next, consider the following molecule.
[ask] Fill blank: measured MG-trapping activity, percentage related to AG (100%) of the molecule Cl.N=C(N)NN [AG, Aminoguanidine hydrochloride, reference compound] is ____.
[reply] 100
